Molecular target: recombinant human MGAT2 (Homo sapiens (Human))
Experiment: Measurement of human MGAT2 inhibitory activity
Details: recombinant human MGAT2 membrane fraction (Sf-9); 2-Oleoylglycerol and Oleoyl-CoA substrates; 1 hour at room temperature; Diolein detected by RapidFire Q-TOF MS
From the text: A full-length human MGAT2 gene to which a Flag-tag had been added at the N-terminal was inserted into pFastBac (from Invitrogen). A recombinant baculovirus was produced in accordance with the protocol for a Bac-to-Bac baculovirus expression system (produced by Invitrogen), and Sf-9 cells were infected therewith. The cells were collected and sonicated, and then the membrane fraction was collected through centrifugation. […]
measured-attribute: pIC50
Answer as the number alone; pIC50 is minus log10 of concentration in mol/L.

Some compounds with recorded pIC50:
| compound | pIC50 |
| --- | --- |
| CS(=O)(=O)CC(=O)NCC1=C(c2ccc(C(F)F)cn2)CC(c2cnn(CCCC(F)(F)F)c2)(C(F)(F)F)NC1=O (racemic) | 7.04 |
| C=C(C)c1ccc(C2=C(CNC(=O)CS(C)(=O)=O)C(=O)N[C@](c3ccc(OCCCC(F)(F)F)cc3)(C(F)(F)F)C2)nc1 | 7.11 |
| CC(=O)NCC1=C(c2ccc(C(F)F)cn2)C[C@](c2ccc(OCCCC(F)(F)F)cc2)(C(F)(F)F)NC1=O | 7.47 |
| COc1ccc(C2=C(CNC(=O)C(C)(C)C#N)C(=O)N[C@@](c3ccc(OCCCC(F)(F)F)cc3)(C(F)(F)F)C2)nc1 | 7.77 |
| CS(=O)(=O)CC(=O)NCC1=C(c2ccc(OC(F)F)cn2)C[C@](c2ccc(C3=CCOCC3)cc2)(C(F)(F)F)NC1=O | 7.38 |

Alright, here's another compound for you.
Using the record for "O=C1N[C@@](c2ccc(OCCCC(F)(F)F)cc2)(C(F)(F)F)CC(c2ccc(C(F)F)cn2)=C1CNC(=O)C1CNC1" , report its pIC50. 6.55

---

Target: recombinant human MGAT2 (Homo sapiens (Human), UniProt Q3SYC2)
Sequence (Q3SYC2 whole entry): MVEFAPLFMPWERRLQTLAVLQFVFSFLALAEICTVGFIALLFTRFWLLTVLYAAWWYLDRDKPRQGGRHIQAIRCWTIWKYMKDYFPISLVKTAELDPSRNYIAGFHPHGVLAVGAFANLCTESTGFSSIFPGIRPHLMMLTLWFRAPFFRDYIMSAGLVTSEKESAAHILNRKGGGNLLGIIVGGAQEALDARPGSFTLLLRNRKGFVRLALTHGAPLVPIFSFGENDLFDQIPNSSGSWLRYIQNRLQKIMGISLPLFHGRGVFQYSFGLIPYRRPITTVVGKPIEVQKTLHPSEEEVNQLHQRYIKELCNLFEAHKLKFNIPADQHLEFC
Assay: Measurement of human MGAT2 inhibitory activity
Conditions: recombinant human MGAT2 membrane fraction (Sf-9); 2-Oleoylglycerol and Oleoyl-CoA substrates; 1 hour at room temperature; Diolein detected by RapidFire Q-TOF MS
measured-attribute: pIC50
Answer as the number alone; pIC50 is minus log10 of concentration in mol/L.

Some compounds with recorded pIC50:
| compound | system | pIC50 |
| --- | --- | --- |
| Cc1ccc(C2=C(CNC(=O)CC(F)(F)F)C(=O)N[C@@](c3ccc(OCCCC(F)(F)F)cc3)(C(F)(F)F)C2)nc1 [Compound I-26] | recombinant human MGAT2 (Homo sapiens (Human), UniProt Q3SYC2) | 8.64 |
| Cc1ccc(C2=C(CNS(C)(=O)=O)C(=O)N[C@@](c3ccc(OCCCC(F)(F)F)cc3)(C(F)(F)F)C2)cc1 [Compound I-1] | recombinant human MGAT2 (Homo sapiens (Human), UniProt Q3SYC2) | 7.68 |
| COC/C=C/c1ccc([C@]2(C(F)(F)F)CC(c3ccc(OC(F)F)cn3)=C(CNC(=O)CS(C)(=O)=O)C(=O)N2)cc1 [Compound I-102] | recombinant human MGAT2 (Homo sapiens (Human), UniProt Q3SYC2) | 7.68 |

Query pIC50 on recombinant human MGAT2 (Homo sapiens (Human), UniProt Q3SYC2) for COc1ccc(C2=C(CNC(=O)CO)C(=O)N[C@@](c3ccc(OCCCC(F)(F)F)cc3)(C(F)(F)F)C2)nc1 [Compound I-40] 7.37

Query pIC50 on recombinant human MGAT2 (Homo sapiens (Human), UniProt Q3SYC2) for COc1ccc(C2=C(CNC(=O)C(C)C)C(=O)N[C@@](c3ccc(OCCCC(F)(F)F)cc3)(C(F)(F)F)C2)nc1 [Compound I-14] 8.10

Query pIC50 on recombinant human MGAT2 (Homo sapiens (Human), UniProt Q3SYC2) for COc1ccc(C2=C(CNC(=O)NC(C)C)C(=O)N[C@@](c3ccc(OCCCC(F)(F)F)cc3)(C(F)(F)F)C2)nc1 [Compound I-32] 7.01

Query pIC50 on recombinant human MGAT2 (Homo sapiens (Human), UniProt Q3SYC2) for O=C(CO)NCC1=C(c2ccc(OC(F)F)cn2)C[C@](c2ccc(OCCCC(F)(F)F)cc2)(C(F)(F)F)NC1=O [Compound I-62] 7.23

Query pIC50 on recombinant human MGAT2 (Homo sapiens (Human), UniProt Q3SYC2) for CS(=O)(=O)CC(=O)NCC1=C(c2ccc(OC(F)F)cn2)C[C@](c2ccc(-c3ccccc3)cc2)(C(F)(F)F)NC1=O [Compound I-99] 7.59

Query pIC50 on recombinant human MGAT2 (Homo sapiens (Human), UniProt Q3SYC2) for CC(C(=O)NCC1=C(c2ccc(C(F)F)cn2)C[C@](c2ccc(OCCCC(F)(F)F)cc2)(C(F)(F)F)NC1=O)S(C)(=O)=O (stereo partly shown) [Compound I-83] 7.66

---

Target: recombinant human MGAT2 (Homo sapiens (Human))
Assay: Measurement of human MGAT2 inhibitory activity
Conditions: recombinant human MGAT2 membrane fraction (Sf-9); 2-Oleoylglycerol and Oleoyl-CoA substrates; 1 hour at room temperature; Diolein detected by RapidFire Q-TOF MS
# key: entry, value: IC50

| chemical-structure | measured-attribute | observed-value |
| --- | --- | --- |
| CC(C)c1ccc(C2=C(CNC(=O)C3CS(=O)(=O)C3)C(=O)N[C@@](c3ccc(OCCCC(F)(F)F)cc3)(C(F)(F)F)C2)nc1 | IC50 | 9.2 nM |
| CS(=O)(=O)CC(=O)NCC1=C(c2ccc(OC(F)F)cn2)C[C@](c2ccc(C(F)(F)F)cc2)(C(F)(F)F)NC1=O | IC50 | 46 nM |
| COc1ccc(C2=C(CNC(=O)C3COC3)C(=O)N[C@@](c3ccc(OCCCC(F)(F)F)cc3)(C(F)(F)F)C2)nc1 | IC50 | 53 nM |
| CS(=O)(=O)CC(=O)NCC1=C(c2ccc(C(F)F)cn2)C[C@](c2ccccc2)(C(F)(F)F)NC1=O | IC50 | 110 nM |
| CC(=O)NCC1=C(c2ccc(C(C)=O)cn2)C[C@](c2ccc(OCCCC(F)(F)F)cc2)(C(F)(F)F)NC1=O | IC50 | 130 nM |

Using the record for "COc1ccc(C2=C(CNC(=O)C3CCC3)C(=O)N[C@@](c3ccc(OCCCC(F)(F)F)cc3)(C(F)(F)F)C2)nc1" , report its IC50. 10 nM

---

Target: recombinant human MGAT2 (Homo sapiens (Human), UniProt Q3SYC2)
Test: Measurement of human MGAT2 inhibitory activity
Type: biochemical
Details: recombinant human MGAT2 membrane fraction (Sf-9); 2-Oleoylglycerol and Oleoyl-CoA substrates; 1 hour at room temperature; Diolein detected by RapidFire Q-TOF MS
# key: entry, value: pIC50
Answer as the number alone; pIC50 is minus log10 of concentration in mol/L.

| chemical-structure | system | measured-attribute | observed-value |
| --- | --- | --- | --- |
| COc1ccc(C2=C(CNS(=O)(=O)C3CCOCC3)C(=O)N[C@@](c3ccc(OCCCC(F)(F)F)cc3)(C(F)(F)F)C2)nc1 | recombinant human MGAT2 (Homo sapiens (Human), UniProt Q3SYC2) | pIC50 | 6.70 |
| CS(=O)(=O)CC(=O)NCC1=C(c2ncc(C3CC3)s2)C[C@](c2ccc(OCCCC(F)(F)F)cc2)(C(F)(F)F)NC1=O | recombinant human MGAT2 (Homo sapiens (Human), UniProt Q3SYC2) | pIC50 | 7.37 |
| COc1ccc(C2=C(CNC(=O)C3CS(=O)(=O)C3)C(=O)N[C@@](c3ccc(OCCCC(F)(F)F)cc3)(C(F)(F)F)C2)nc1 | recombinant human MGAT2 (Homo sapiens (Human), UniProt Q3SYC2) | pIC50 | 7.21 |
| Cc1ccc(C2=C(CNC(=O)CO)C(=O)N[C@@](c3ccc(OCCCC(F)(F)F)cc3)(C(F)(F)F)C2)nc1 | recombinant human MGAT2 (Homo sapiens (Human), UniProt Q3SYC2) | pIC50 | 7.15 |
| CS(=O)(=O)CC(=O)NCC1=C(c2ccc(OC(F)F)cn2)C[C@](c2ccc(OCC(F)F)cc2)(C(F)(F)F)NC1=O | recombinant human MGAT2 (Homo sapiens (Human), UniProt Q3SYC2) | pIC50 | 8.04 |
| COc1ccc(C2=C(CNC(=O)CS(C)(=O)=O)C(=O)N[C@@](c3ccc(OCCCC(F)(F)F)cc3)(C(F)(F)F)C2)nc1 | recombinant human MGAT2 (Homo sapiens (Human), UniProt Q3SYC2) | pIC50 | 8.60 |
| CC(C)(C)OC(=O)N1CC(C(=O)NCC2=C(c3ccc(C(F)F)cn3)C[C@](c3ccc(OCCCC(F)(F)F)cc3)(C(F)(F)F)NC2=O)C1 | recombinant human MGAT2 (Homo sapiens (Human), UniProt Q3SYC2) | pIC50 | 7.85 |
| CS(=O)(=O)CC(=O)NCC1=C(c2ccc(OC(F)F)cn2)C[C@](c2ccc(Br)cc2)(C(F)(F)F)NC1=O | recombinant human MGAT2 (Homo sapiens (Human), UniProt Q3SYC2) | pIC50 | 7.60 |
| Cc1ccc(C2=C(CNS(N)(=O)=O)C(=O)N[C@@](c3ccc(OCCCC(F)(F)F)cc3)(C(F)(F)F)C2)nc1 | recombinant human MGAT2 (Homo sapiens (Human), UniProt Q3SYC2) | pIC50 | 6.64 |
| O=C(CO)NCC1=C(c2ccc(C(F)F)cn2)C[C@](c2ccc(OCCCC(F)(F)F)cc2)(C(F)(F)F)NC1=O | recombinant human MGAT2 (Homo sapiens (Human), UniProt Q3SYC2) | pIC50 | 6.96 |

Query pIC50 on recombinant human MGAT2 (Homo sapiens (Human), UniProt Q3SYC2) for "CS(=O)(=O)CC(=O)NCC1=C(c2ccc(OC(F)F)cn2)C[C@](c2ccc(OCCCC(F)(F)F)cn2)(C(F)(F)F)NC1=O" 8.18

Query pIC50 on recombinant human MGAT2 (Homo sapiens (Human), UniProt Q3SYC2) for "CS(=O)(=O)CC(=O)NCC1=C(c2ccc(C(F)F)cn2)C[C@](c2ccc(CCC(F)(F)F)cc2)(C(F)(F)F)NC1=O" 8.72

Query pIC50 on recombinant human MGAT2 (Homo sapiens (Human), UniProt Q3SYC2) for "CS(=O)(=O)CC(=O)NCC1=C(c2ccc(C(F)F)cn2)C[C@](c2ccc(OCC(F)(F)F)cc2)(C(F)(F)F)NC1=O" 8.17

Query pIC50 on recombinant human MGAT2 (Homo sapiens (Human), UniProt Q3SYC2) for "O=C1N[C@@](c2ccc(OCCCC(F)(F)F)cc2)(C(F)(F)F)CC(c2ccc(C(F)F)cn2)=C1CNC(=O)C1(F)CNC1" 7.40

Query pIC50 on recombinant human MGAT2 (Homo sapiens (Human), UniProt Q3SYC2) for "CS(=O)(=O)CC(=O)NCC1=C(c2ccc(C(F)F)cn2)C[C@](c2ccc(C(F)(F)F)cc2)(C(F)(F)F)NC1=O" 7.11

Query pIC50 on recombinant human MGAT2 (Homo sapiens (Human), UniProt Q3SYC2) for "CS(=O)(=O)C1(C(=O)NCC2=C(c3ccc(C(F)F)cn3)C[C@](c3ccc(OCCCC(F)(F)F)cc3)(C(F)(F)F)NC2=O)CC1" 6.85

Query pIC50 on recombinant human MGAT2 (Homo sapiens (Human), UniProt Q3SYC2) for "CS(=O)(=O)CC(=O)NCC1=C(c2ccc(OC(F)F)cn2)C[C@](c2ccc(C3CC3)cc2)(C(F)(F)F)NC1=O" 7.77
